Values compiled from PubChem BioAssay (NCI).

- System: MDA-MB-435 melanoma
- protocolDescription: NCI-60 one-dose screen, 48 h (100 = growth as untreated, 0 = no growth, -100 = all killed)
- testConditions: 10 µM unless noted
Compounds without any hit were thinned out: in the full panel of roughly 83,000, 20% have a hit.
// values below are reported growth
Unit % implied. Number only.

Solved entries (count: 5):
COc1ccc(Br)c(C=O)c1    49.8
CCN(CC)CCOC(=O)Nc1c(C(C)C)cccc1C(C)C    102
CCOC(=O)CO    104
Cc1cc(CC(=O)NCCO)n(CCO)c(=O)c1    107
CC(=O)NNC(=S)N/C=C/c1c(C)ccc([N+](=O)[O-])c1[N+](=O)[O-]    100

## Input Could you share which growth value was measured for CC1(c2ccccc2)CO1 (stereo not drawn) ?
## Output 113

## Input Could you share which growth value was measured for Cc1cccc(C)c1NC(=S)/N=C\c1c(O)[nH]c(=O)[nH]c1=O ?
## Output 107

## Input Could you share which growth value was measured for O=C(O)Cc1ccc(Cl)cc1 ?
## Output 97.3

## Input Could you share which growth value was measured for O=C(NCc1ccccc1)/C(=C/c1ccccc1)NC(=O)c1ccccc1 ?
## Output 113

## Input Could you share which growth value was measured for Cc1cccnc1NC1OC(=O)c2ccccc21 (stereo not drawn) ?
## Output 103

## Input Could you share which growth value was measured for CN1CCCN(C(c2ccccc2)c2ccc(Cl)cc2)CC1 (stereo not drawn) ?
## Output 89.6

## Input Could you share which growth value was measured for CCCNS(=O)(=O)c1ccc(Cl)cc1 ?
## Output 93.3

## Input Could you share which growth value was measured for CCOP(=O)(OCC)/C(=C\N1C(=O)CC(=O)NC1=S)C(=O)OC ?
## Output 102
